- test_name: Example 18 Part 2: multiple dose PK (20 mg QID) of 3,4-DAP and 3-N-acetyl metabolite in slow and fast acetylators
- Type: in vivo, human
- conditions_used: both sexes, human, plasma, oral, 20 mg, Day 1, Dose 2, fast acetylators, 20 mg QID; read-out: Mean t1/2 (converted)
- Description: The following method was used to analyze concentrations of 3,4-diaminopyridine and N-(4-aminopyridin-3-yl)acetamide in plasma and urine samples for the experiments in Example 18. […] Samples were analyzed by using HPLC with positive ion electrospray MS/MS detection. […] The LC/MS/MS method was validated to quantify 3,4-DAP in human plasma in the linear calibration range of 0.500 to 500 ng/mL and from 1.00 to 1000 ng/mL for the 3-N-acetyl metabolite. […]
readout: half-life (h)
Could you give me the number in h? Just the number is fine.

Give recorded half-life. Nc1ccncc1N [3,4-DAP, 3,4-diaminopyridine]
1.31

###

- test_name: Example 18 Part 2: multiple dose PK (20 mg QID) of 3,4-DAP and 3-N-acetyl metabolite in slow and fast acetylators
- Assay type: in vivo, human
- conditions_used: both sexes, human, plasma, oral, 20 mg, Day 1, Dose 1, fast acetylators, 20 mg QID; read-out: Mean Vz/F
readout: Vd/F (L)
Could you give me the number in L? Just the number is fine.

Give recorded Vd/F. Nc1ccncc1N
1330

###

- test_name: Example 18 Part 2: multiple dose PK (20 mg QID) of 3,4-DAP and 3-N-acetyl metabolite in slow and fast acetylators
- Format: in vivo, human
- conditions_used: both sexes, human, plasma, oral, 20 mg, Day 1, Dose 4, fast acetylators, 20 mg QID; read-out: Mean Cmax
- Procedure: The following method was used to analyze concentrations of 3,4-diaminopyridine and N-(4-aminopyridin-3-yl)acetamide in plasma and urine samples for the experiments in Example 18. […] Samples were analyzed by using HPLC with positive ion electrospray MS/MS detection. […] The LC/MS/MS method was validated to quantify 3,4-DAP in human plasma in the linear calibration range of 0.500 to 500 ng/mL and from 1.00 to 1000 ng/mL for the 3-N-acetyl metabolite. […]
readout: Cmax (ng/mL)
Could you give me the number in ng/mL? Just the number is fine.

Give recorded Cmax. Nc1ccncc1N
16.4

###

- test_name: Example 18 Part 2: multiple dose PK (20 mg QID) of 3,4-DAP and 3-N-acetyl metabolite in slow and fast acetylators
- Type: in vivo, human
- conditions_used: both sexes, human, plasma, oral, 20 mg, Day 1, fast acetylators, Dose 1 interval, 20 mg QID, arith. mean; read-out: Cmax
- Experimental: The following method was used to analyze concentrations of 3,4-diaminopyridine and N-(4-aminopyridin-3-yl)acetamide in plasma and urine samples for the experiments in Example 18. […] Samples were analyzed by using HPLC with positive ion electrospray MS/MS detection. […] The LC/MS/MS method was validated to quantify 3,4-DAP in human plasma in the linear calibration range of 0.500 to 500 ng/mL and from 1.00 to 1000 ng/mL for the 3-N-acetyl metabolite. […]
readout: Cmax (ng/mL)
Could you give me the number in ng/mL? Just the number is fine.

Give recorded Cmax. CC(=O)Nc1cnccc1N [3-N-acetyl amifampridine, N-(4-aminopyridin-3-yl)acetamide]
333

###

- test_name: Food-effect crossover study, plasma and urine PK after single 20 mg amifampridine phosphate in healthy subjects (Examples 10, 12)
- Type: in vivo, human
- conditions_used: human, plasma, oral, 20 mg, fed; read-out: Cmax, individual subject range
readout: Cmax

Give recorded Cmax. Nc1ccncc1N
2.81 to 132 ng/mL
